Biological target: mouse Tas2r105 (Mus musculus, UniProt Q9JKT4)
Construct: expressed in transfected cells; host or cells: HEK293T-Gα16gust44
Sequence (Q9JKT4 1-300): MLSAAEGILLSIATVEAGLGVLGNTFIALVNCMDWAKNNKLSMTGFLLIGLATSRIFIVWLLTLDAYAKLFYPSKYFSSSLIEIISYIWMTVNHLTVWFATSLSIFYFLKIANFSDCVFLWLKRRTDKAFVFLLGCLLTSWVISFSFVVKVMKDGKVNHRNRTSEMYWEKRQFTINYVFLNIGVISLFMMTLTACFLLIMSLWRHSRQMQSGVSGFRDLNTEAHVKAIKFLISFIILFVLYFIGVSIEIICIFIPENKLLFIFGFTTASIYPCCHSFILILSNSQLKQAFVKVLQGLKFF
Assay: Calcium imaging assay (FLIPR), HEK293T-Gα16gust44 cells transfected with mouse Tas2r105
Assay type: cell-based
Details: Time 110.781 s
I'd appreciate it if you could supply RLU values for the items below.
Give bare numbers, in RLU.

compoundString: C[C@H](CCC(=O)O)[C@H]1CC[C@H]2[C@@H]3[C@H](O)C[C@@H]4C[C@H](O)CC[C@]4(C)[C@H]3C[C@H](O)[C@]12C
RLU / RLU: 542.028

compoundString: C[C@H](CCC(=O)O)[C@H]1CC[C@H]2[C@@H]3CC[C@@H]4C[C@H](O)CC[C@]4(C)[C@H]3C[C@H](O)[C@]12C
RLU / RLU: 147.264

compoundString: C[C@H](CCC(=O)NCC(=O)O)[C@H]1CC[C@H]2[C@@H]3[C@H](O)C[C@@H]4C[C@H](O)CC[C@]4(C)[C@H]3C[C@H](O)[C@]12C
RLU / RLU: 525.903

Quick check: RLU on mouse Tas2r105 (Mus musculus, UniProt Q9JKT4), item `C[C@H](CCC(=O)O)[C@H]1CC[C@H]2[C@@H]3CC[C@@H]4C[C@H](O)CC[C@]4(C)[C@H]3CC[C@]12C` ?
261.979
